Each recorded value in this set is attributed to paper PMC12167799.

- target.of.assay: T1, SWSAP1 K18A (Walker A);hSWS1 (Homo sapiens;Homo sapiens, UniProt Q6NVH7;Q19AV6 22-250;1-140, K39A|)
- T1 sequence 1: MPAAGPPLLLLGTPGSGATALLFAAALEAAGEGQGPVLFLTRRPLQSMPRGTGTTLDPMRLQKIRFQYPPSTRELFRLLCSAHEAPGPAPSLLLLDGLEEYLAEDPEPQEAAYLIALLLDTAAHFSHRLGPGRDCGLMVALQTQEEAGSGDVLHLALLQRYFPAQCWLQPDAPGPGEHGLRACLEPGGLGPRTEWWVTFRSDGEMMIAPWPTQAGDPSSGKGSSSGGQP
- T1 sequence 2: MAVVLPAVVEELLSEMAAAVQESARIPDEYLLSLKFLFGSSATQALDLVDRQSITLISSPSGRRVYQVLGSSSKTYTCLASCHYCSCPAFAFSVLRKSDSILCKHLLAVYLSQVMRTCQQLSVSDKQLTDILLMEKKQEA
- test.protocol: fluorescence polarization; 2 mM ATP; FPA: 5 nM 6-FAM DNA, 37 C, 2 mM nucleotide where stated (buffer not given in material); EMSA: 0.05 uM 6-FAM DNA, 5%/15% native PAGE; RAD51 filaments: 2 mM ATP
- particulars: protein: recombinant;recombinant; tags: N-terminal 6xHis-TEV, cleaved;none; copies: 1;1; label: 3' 6-FAM
parameter.measured: Kd (µM)
Just the number in µM, nothing appended.

Noted for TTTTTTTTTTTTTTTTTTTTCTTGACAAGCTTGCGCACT (ssDNA) [ss39] : its Kd reads 9.5
